TESTED_ON: Serine/threonine-protein kinase Sgk1 (Homo sapiens)
TEST_CONDITIONS: at 1 µM
In this section we review reported residual activity values for a set of compounds.
PARAMETER: residual activity

COc1cccc(-c2cc(=O)c3ccccc3o2)c1N
79%
Cc1nc(-c2ccccc2)c(-c2ccncc2)o1
107%
COc1ccc(C(=O)Nc2sc3c(c2C(N)=O)CCCC3)cc1OC
85%
Ic1cccc(CSc2nnc(-c3ccncc3)o2)c1
71%
COc1ccc(CNc2nc(N(CCO)CCO)nc3c2ncn3C(C)C)cc1
73%
O=C1Nc2ccc(Br)cc2/C1=C\c1cc2c([nH]1)CCCC2
104%
CC(=O)O/N=C1\C(=C2\C(=O)Nc3cc(Br)ccc32)Nc2ccccc21
69%
O=C1Nc2ccccc2/C1=C1/Nc2ccccc2/C1=N\OCCC(O)CO (stereo unspecified)
67%
CCN(CC)C(=O)c1ccc(Nc2nc(OCC3CCCCC3)c3nc[nH]c3n2)cc1
77%
O=c1c2ccccc2[nH]c(=S)n1CCN1CCC(=C(c2ccc(F)cc2)c2ccc(F)cc2)CC1
92%
CC(C)n1cnc2c(NCc3ccccc3)nc(NCCCO)nc21
97%

###

TESTED_ON: Tyrosine-protein kinase CSK (Homo sapiens)
TEST_CONDITIONS: at 1 µM
PARAMETER: residual activity (%)

Cn1nc2c3c(cccc31)C(=O)c1ccccc1-2
101
CC[n+]1c(/C=C/N(C)c2ccccc2)n(-c2ccccc2)c2ccc(-c3nc4ccccc4s3)cc21
103
Cc1nc2cc3nc(-c4cccs4)cnc3cc2n1C
110
Nc1n[nH]c2nnc(-c3c(-c4ccccc4)nn4ccccc34)cc12
107
COc1ccc(C(=O)Nc2sc3c(c2C(N)=O)CCCC3)cc1OC
101
CC(C)n1cnc2/c(=N/c3cccc(Cl)c3)nc(NCCO)[nH]c21
101
Nc1cccc(-c2cc3c(Oc4cccc(O)c4)ncnc3[nH]2)c1
79
CO[C@H]1[C@@H](OC)C[C@H](C)[C@@H](OC)C2=CC(=O)C=C(NC(=O)/C(C)=C/C=C/[C@H](OC)[C@@H](OC(N)=O)/C(C)=C/[C@@H]1C)C2=O
108
COc1ccc(OC)c2c(=S)c3ccccc3[nH]c12
109
CC#CC(=O)Nc1cc2c(Nc3ccc(F)c(Cl)c3)ncnc2cn1
103
O=C1NC(=O)c2cc(Nc3ccc(F)cc3)c(Nc3ccc(F)cc3)cc21
98
CO[C@@H]1[C@H](N(C)C(=O)c2ccccc2)C[C@H]2O[C@]1(C)n1c3ccccc3c3c4c(c5c6ccccc6n2c5c31)C(=O)NC4
82
O=C1NC(=O)/C(=C\c2ccc3nccnc3c2)S1
102
Nc1ccc2ncnc(NCCc3ccc(Oc4ccccc4)cc3)c2c1
118
CN(C)c1ccc(/C=C2\C(=O)Nc3ccccc32)cc1
116
CCC(=O)Nc1ccc2ncnc(Nc3cccc(Br)c3)c2c1
104
O=c1c2ccccc2[nH]c(=S)n1CCN1CCC(=C(c2ccc(F)cc2)c2ccc(F)cc2)CC1
120
Oc1ccc(Nc2nc(-c3ccc(Cl)cc3)cs2)cc1
98
Cn1cc(/C=C2\C(=O)Nc3ccc(S(N)(=O)=O)cc32)c2ccccc21
114
O=C(Nc1cccc(Nc2nccc(Nc3cccc(C(F)(F)F)c3)n2)c1)C1CC1
115

###

TESTED_ON: BDNF/NT-3 growth factors receptor (Homo sapiens)
TEST_CONDITIONS: at 1 µM
I'd appreciate it if you marked entries true (1) when residual activity is lower than 70% and false (0) when it is not.

O=C(O)c1ccc2c3c1cccc3c(=O)n1c3ccccc3nc21
false (0)
O=C1Nc2ccccc2/C1=C1/Nc2ccccc2/C1=N\OCCC(O)CO (configuration not stated)
true (1)
Nc1ccc2ncnc(NCCc3ccc(Oc4ccccc4)cc3)c2c1
false (0)
N#C/C(=C(\N)Sc1ccc(N)cc1)c1ccccc1C(F)(F)F
false (0)
CCN(CC)C(=O)c1ccc(Nc2nc(OCC3CCCCC3)c3nc[nH]c3n2)cc1
true (1)
